# System: Human peripheral blood mononuclear cells (PBMCs) as Responder cells, RPMI 1788 Stimulator cells
# ASSAY_METHOD_TEXT: Mixed Lymphocyte Reaction (MLR) test
# Assay type: cell-based
# ASSAY_SETUP: Homo sapiens, RPMI-1788, lowest concentration giving 50% inhibition of the MLR; 6 days coculture, 3H-thymidine incorporation
# key: entry, value: IC50
QUANTITY_NAME: IC50 (nM)

{"columns": ["COMPOUND", "UNIT_TAG", "RECORDED_NUMBER"],
 "data": [
  ["Cc1ccc(NC(=O)N2CCN(c3nc(N)nc4sc(-c5ccc(F)cc5)nc34)CC2)cc1 [Example 42]", "nM", 700],
  ["COc1cccc(CCc2nc3c(N4CCN(C(=O)COc5ccc(Cl)cc5)CC4)nc(N)nc3s2)c1 [Example 255]", "nM", 710],
  ["COc1ccc(CCc2nc3c(N4CCN(C(=O)COc5ccc(Br)cc5)CC4)nc(N)nc3s2)cc1OC [Example 256]", "nM", 740],
  ["Cc1ccc(CCc2nc3c(N4CCN(C(=O)COc5ccc(Br)cc5)CC4)nc(N)nc3s2)cc1 [Example 258]", "nM", 930],
  ["Nc1nc(N2CCN(C(=O)COc3ccc(Cl)cc3)CC2)c2nc(C3CCCCC3)sc2n1 [Example 120]", "nM", 830],
  ["Nc1nc(N2CCN(C(=O)COc3ccc(Cl)cc3)CC2)c2nc(-c3ccc(F)cc3)[nH]c2n1 [Example 389]", "nM", 810]
]}

* * *

# Test system: Human peripheral blood mononuclear cells (PBMCs) as Responder cells, RPMI 1788 Stimulator cells
# ASSAY_METHOD_TEXT: Mixed Lymphocyte Reaction (MLR) test
# Type: cell-based
# ASSAY_SETUP: Homo sapiens, RPMI-1788, lowest concentration giving 50% inhibition of the MLR; 6 days coculture, 3H-thymidine incorporation
pIC50: −log10 of the molar value.

{"columns": ["MOLECULAR_STRING", "pIC50"],
 "data": [
  ["Nc1nc(N[C@H]2CCN(C(=O)COc3ccc(Cl)cc3)C2)c2nc(CCc3ccc(F)cc3)sc2n1", 5.34],
  ["Nc1nc(N2CCN(C(=O)COc3ccc(Cl)cc3)CC2)c2nc(C3CC3)[nH]c2n1", 6.37],
  ["Nc1nc(N2CCN(C(=O)COc3cccc([N+](=O)[O-])c3)CC2)c2nc(CCc3ccc(F)cc3)sc2n1", 5.49],
  ["Nc1nc(N2CCN(C(=O)COc3ccc(Cl)cc3)CC2)c2nc(CCc3ccccc3)sc2n1", 6.07],
  ["Nc1nc(N2CCN(C(=O)Nc3ccc(Cl)cc3)CC2)c2nc(-c3cccnc3)sc2n1", 7.62],
  ["Nc1nc(N2CCN(C(=O)COc3ccc(F)cc3)CC2)c2nc(-c3ccc(F)cc3)sc2n1", 7.13],
  ["Nc1nc(N2CCN(CC(=O)Nc3cccnc3)CC2)c2nc(-c3ccc(F)cc3)[nH]c2n1", 5.06],
  ["COc1ccc(OCC(=O)N2CCN(c3nc(N)nc4sc(-c5ccc(F)cc5)nc34)CC2)cc1", 7.43],
  ["Nc1nc(N2CCCN(C(=O)COc3ccc(Cl)cc3)CC2)c2cc(-c3ccccc3)sc2n1", 5.05],
  ["Nc1nc(N2CCN(C(=O)COc3ccc(F)cc3)CC2)c2cc(-c3ccccc3)sc2n1", 7.18],
  ["Cc1cccc(NC(=O)N2CCCN(c3nc(N)nc4[nH]c(-c5ccc(F)cc5)nc34)CC2)c1", 5.93],
  ["Cc1cccc(NC(=O)N2CCN(c3nc(N)nc4sc(-c5cccnc5)nc34)CC2)c1", 9.00],
  ["Nc1nc(N2CCN(C(=O)COc3ccc(Cl)cc3)CC2)c2nc(Nc3ccc(F)cc3)sc2n1", 5.17],
  ["Nc1nc(N2CCN(C(=O)Cc3ccc(Cl)cc3)CC2)c2nc(CCc3ccc(F)cc3)oc2n1", 5.04]
]}

The measurements presented in this section are drawn from patent US9221822B2.
